System: IL-6 (THP-1 cells)
Test: Inhibition of IL-6 in LPS-stimulated THP-1 human monocyte cells (HTRF)
Assay type: cell-based
Conditions: inhibition of IL-6 in LPS-stimulated THP-1 cells, HTRF, 10-point dose-response starting from 10 μM
This section presents molecules with their documented EC50 values.
Return type: number; implicit unit µM.

Guide cases for EC50, answers given:
Entry CC(C)C(=O)Nc1cncc(-c2cc3c(-c4cc5c(-c6cccnc6)cccc5[nH]4)n[nH]c3cn2)c1 [Compound 93] : reported EC50 = ? 0.181

EC50 lookup needed for Cn1cc(-c2cc3c(-c4cc5ncccc5[nH]4)n[nH]c3cn2)cn1 [Compound 1022] , thanks. 0.344

Form field: reported EC50 of CN(C)Cc1cncc(-c2cc3c(-c4cc5c(-c6cccc(F)c6)cccc5[nH]4)n[nH]c3cn2)c1 [Compound 13] 7.52

Give its EC50 value. Item: Cc1ccncc1-c1cc2c(-c3cc4c(-c5cc(F)cc(CNS(C)(=O)=O)c5)cccc4[nH]3)n[nH]c2cn1 [Compound 481] 1.18

Others:
// lookup EC50 for Fc1ccccc1-c1cccc2[nH]c(-c3n[nH]c4cnc(-c5cncc(CN6CCCCC6)c5)cc34)cc12 [Compound 71] 7.66

Request the reported EC50 associated with CN1CCN(c2cccc3[nH]c(-c4n[nH]c5cnc(-c6cncnc6)cc45)cc23)CC1 [Compound 251] 1.08

Using the record for Fc1cccc(-c2cccc3[nH]c(-c4n[nH]c5cnc(-c6ccccn6)cc45)cc23)c1 [Compound 28] , report its EC50. 3.6

Recorded EC50 of O=C(Cc1ccccc1)Nc1cncc(-c2cc3c(-c4cc5c(-c6ccccn6)cccc5[nH]4)n[nH]c3cn2)c1 [Compound 150] , please. 2.02

# get_value(readout='EC50', item= O=C(Nc1cncc(-c2cc3c(-c4cc5ccccc5[nH]4)n[nH]c3cn2)c1)C1CCCCC1 [Compound 275] ) 0.092

Any idea what EC50 was measured for O=C(Nc1cncc(-c2cc3c(-c4cc5c(-c6cccc(F)c6)cccc5[nH]4)n[nH]c3cn2)c1)c1ccccc1 [Compound 11] ? 3.21

Returns the measured EC50 for the input molecule. Input: O=C(Nc1cncc(-c2cc3c(-c4cc5c(N6CCCCC6)cccc5[nH]4)n[nH]c3cn2)c1)C1CC1 [Compound 188] 4.96

Please look up its EC50: c1cc(-c2ccoc2)c2cc(-c3n[nH]c4cnc(-c5cncc(CN6CCCCC6)c5)cc34)[nH]c2c1 [Compound 323] 3.49

Data request, read-out EC50, for CCCCC(=O)Nc1cncc(-c2cc3c(-c4cc5c(N6CCN(C)CC6)cccc5[nH]4)n[nH]c3cn2)c1 [Compound 243] 3.23

* * *

Measured inhibition at 10 µM, listed per entry for reference.
Test system: SW480 colon cancer cells
Assay: Cell viability assay (CellTiter-Blue) in SW480 colon cancer cells
Type: cell-based
Conditions: Homo sapiens, 96 h, four days, 10 μM, read-out: percent inhibition at 10 μM (given for EC50 of >10 μM)
Write it as a number; the unit % goes unstated.

Worked cases, inhibition at 10 µM given:
State the recorded inhibition at 10 µM for this entry: Fc1ccc(-c2cccc3[nH]c(-c4n[nH]c5cnc(-c6cncnc6)cc45)cc23)cc1 [Compound 55] 13.6

Query: inhibition at 10 µM; subject: CCCCC(=O)Nc1cncc(-c2cc3c(-c4cc5c(-c6ccccc6F)cccc5[nH]4)n[nH]c3cn2)c1 [Compound 75] 10.7

State the recorded inhibition at 10 µM for this entry: c1csc(-c2cccc3[nH]c(-c4n[nH]c5cnc(C6CCNCC6)cc45)cc23)c1 [Compound 725] 8.1

Any idea what its inhibition at 10 µM is? The molecule is Cc1ccncc1-c1cc2c(-c3cc4c(-c5ccncc5)cccc4[nH]3)n[nH]c2cn1 [Compound 117] 16.6

Fill in the blank: the reported inhibition at 10 µM of c1cc(N2CCCCC2)c2cc(-c3n[nH]c4cnc(-c5cncc(OC6CCCCC6)c5)cc34)[nH]c2c1 [Compound 635] is ____. 26.8

Entry c1cc(-c2ccncc2)c2cc(-c3n[nH]c4cnc(-c5cncnc5)cc34)[nH]c2c1 [Compound 139] has what inhibition at 10 µM? 15.5

Consider the molecule shown here: c1cc(-c2ccoc2)c2cc(-c3n[nH]c4cnc(-c5cn[nH]c5)cc34)[nH]c2c1 [Compound 711] What is its recorded inhibition at 10 µM? 45.1

Others:
Entry CN(C)CCOc1cncc(-c2cc3c(-c4cc5ncccc5[nH]4)n[nH]c3cn2)c1 [Compound 1029] : reported inhibition at 10 µM = ? 17.1
